# System: PC-3 prostate
# method_notes: NCI-60 one-dose screen, 48 h (100 = growth as untreated, 0 = no growth, -100 = all killed)
# condition_context: 10 µM unless noted
About 83,000 compounds went through this panel and 20% of them were active in at least one assay; those are over-represented in the sample as a whole.
assay_endpoint: growth (%)

- CCOC(=O)Nc1ccc2c(ccn2C(=O)c2cccc(F)c2)c1: 42
- COc1ccc(OC)c(CCn2cncc2-c2c[nH]c3ccc(Cl)cc23)c1: 39.1
- COc1ccc(/C(=N\N=C(N)N)c2ccc(Cl)cc2)cc1OC: 44
- Cc1cc(Br)ccc1-n1cc(C#N)c(N)c1C(=O)c1ccc(Br)cc1: 103
- N#Cc1c(-c2cccs2)cc(-c2cnccn2)nc1SCC(=O)N/N=C/c1ccc(Cl)cc1: 93.9
- CCOC(=O)c1c(NCC(=O)Nc2cccc([N+](=O)[O-])c2)sc(C(C)=O)c1C: -14.5
- O=C(Nc1ccc(Cl)c(C(F)(F)F)c1)Nc1ccc2c(ccn2C(=O)c2cccc(F)c2)c1: 9.11
- COc1ccc(/C=N/NC(=O)CSc2nc(-c3cnccn3)cc(-c3cccs3)c2C#N)cc1: 72.9
- Cc1ncn(-c2ccc(/C=N/Nc3ccnc4cc(Cl)ccc34)cc2)c1C: -21.3
- CN1CCN(c2ccc(Nc3nc(NCCCNS(=O)(=O)c4cccc5ccccc45)c4sccc4n3)cc2)CC1: 29.1
- Cc1ccc2c(n1)C(=O)C(Cl)=C(Nc1ccccc1C(=O)OC(C)(C)C)C2=O: 67.1
- CCOC(=O)c1ccccc1NC1=C(Cl)C(=O)c2nc(C)ccc2C1=O: 96.8
- CCN(CC)c1ccc(/C=N/NC(=O)c2ccc(S(N)(=O)=O)cc2)cc1: 43.8
- COC(=O)c1cccc(NC2=C(Cl)C(=O)c3nc(C)ccc3C2=O)c1: 85.4
- Cc1ccc([C@H]2c3[nH]c4ccccc4c3C[C@H]3C(=O)N(CCCCCCC(=O)NO)CC(=O)N23)s1: 61.9
- CN1CCN(c2ccc(Nc3nc(NCCCNS(=O)(=O)c4cccc(F)c4)c4sccc4n3)cc2)CC1: 63.1
- CC(C)(C)c1cc(NC(=O)Nc2ccc(-c3cn4c5c(sc4n3)CCc3c[nH]cc3-5)cc2)no1: 21.9
- CNCCN(C)c1ccc(Nc2cc(NC3CC3)n3ncc(C#N)c3n2)cc1NC(C)=O: 10.7
- CC(=O)OC[C@@]12Oc3c(cccc3-c3ccc(O)c4c3O[C@]3(COC(C)=O)C(=C4O)C(=O)C[C@H](C)[C@@H]3OC(C)=O)C(O)=C1C(=O)C[C@H](C)[C@@H]2OC(C)=O: 11.6
